The entries below are paired with their reported log10 TGI.
# Test system: SF-539 CNS
# assay: NCI tumour cell line growth inhibition, 48 h
All values: base-10 log of TGI in µM.

Worked set:
[ask] Hello, please tell me recorded log10 TGI for this one: `O=C(/C=C/C(Cl)(Cl)Cl)Nc1ccc(Cl)cc1`
[reply] 0.60

[ask] Recall and state the measured log10 TGI for `CCN1CCN(c2nc3ccccc3nc2C(=O)c2ccc(OC)c(OC)c2)CC1` .
[reply] 0.50

[ask] Fill in reported log10 TGI for this entry: `COc1ccc(-c2[nH]nc(N)c2-c2cc(OC)c3c(c2)OCO3)cc1`
[reply] 1.68

[ask] Write down log10 TGI measured for item CCN(CC)c1ccc(C2Nc3ccc4ccccc4c3C3=C2C(=O)CCC3)cc1 (stereo not drawn)
[reply] 1.45

[ask] Annotate the compound `Cc1nc(-n2nc(-c3ccccc3)cc2-c2ccccc2)sc1C(=O)/C=C/c1ccc(Cl)c(Cl)c1` with its measured log10 TGI.
[reply] 1.65

[ask] Give the value of log10 TGI reported for the following: `Clc1ccc2ncc(-c3cccc(NC4CNC4)n3)n2c1`
[reply] 1.24

[ask] Give reported log10 TGI value for `Clc1ccc(OCc2nnc3n2N=C(c2ccc(Br)cc2)CS3)cc1`
[reply] 1.39

[ask] Quick one: give measured log10 TGI for `Cc1ccc(/C=C/c2c(C(=O)/C=C/c3ccc(Cl)cc3)c(C)nc3ccccc23)cc1`
[reply] 0.52

[ask] Give reported log10 TGI value for `Cc1cc2ccc(OC(=O)c3ccc(N=C(N)N)cc3)cc2oc1=O`
[reply] 1.79

Continue with the compound presented below.
[ask] Given `COc1cc(/C=C/c2ccc(Br)cc2)cc(OC)c1OC` , respond with its log10 TGI.
[reply] 1.50

====

# System: IGROV1 ovarian
# assay: NCI tumour cell line growth inhibition, 48 h; in the data active = GI50 below about 0.43 µM; inactive = the rest
Log the outcome using a class from class 1 = active, class 0 = inactive

Look over these answered cases.
[ask] Record lookup: outcome of this test for `CCCCCC[C@@H](C)Nc1nc2ccccc2c2occc12` ?
[reply] class 1

[ask] Given `Cc1ccc(Cl)cc1NC(=O)c1cc2ccccc2cc1O` , state the outcome it received in this test.
[reply] class 1

[ask] Entry `CCOC(=O)/C(C#N)=C1\SS/C(=C(/C#N)C(=O)OCC)S1` : call = ?
[reply] class 0

[ask] Which outcome did this test record for the compound `Cc1c(-c2ccc(O)cc2)oc(=O)c2ccc(O)cc12` ?
[reply] class 0

[ask] Fill in: this test's call for `O=C(Nc1ccccc1C(F)(F)F)c1ccc(NC2=C(Cl)C(=O)N(Cc3ccccc3)C2=O)cc1` is ___
[reply] class 0

[ask] Test call for this compound, please: `C=C1C(=O)O[C@H]2[C@H]1CC/C(Cn1cc(-c3cccc(Cl)c3)nn1)=C\CC[C@@]1(C)O[C@@H]21`
[reply] class 0

Next:
[ask] # lookup: test call for `CCOC(=O)c1c(NC(=O)c2ccccc2)sc2c3c(ccc12)OCN(C)C3`
[reply] class 0

[ask] What classification did CC(c1ccccc1)[C@@H](C(=O)Nc1ccc(I)cc1F)N1C(=O)N[C@H](c2ccc(OC[C@H](O)CO)cc2)C1=O (stereo not given in full) end up with in this test?
[reply] class 0

[ask] Please share the test call associated with `O=C(Nc1ccc(-n2ccc3c(NC(=O)c4ccccc4)nccc32)cc1)Nc1cccc(C(F)(F)F)c1` .
[reply] class 0

[ask] Short answer needed: outcome of this test for `O=C1c2cccnc2C(=O)c2c1c(C(=O)NCCn1ccnc1)c1ccccn21` ?
[reply] class 0

====

# Tested on: A498 renal
# assay: NCI tumour cell line growth inhibition, 48 h
Each record here notes measured TGI.

These recorded examples may help you get a feel for the data.
[ask] Identify measured TGI obtained with A498 renal for `CCOc1ccc2c(c1)CN(Cc1ccc(Cl)cc1)CO2` .
[reply] 19.2 µM

[ask] State measured TGI of the compound `Cc1ccc2nc(-c3ccc(NC(=O)c4ccc(N)cc4)c(S(=O)(=O)O)c3)sc2c1` with A498 renal.
[reply] > 100 µM

[ask] Provide the reported TGI (system: A498 renal) for CCOC(=O)[C@@H]1ON2O[C@H](OC3CCCCC3c3ccccc3)C[C@H]3OC(=O)[C@@H]1C32 (stereo partly specified)
[reply] > 100 µM

[ask] Look up and report TGI, with A498 renal as system, for `Cc1cc(C)c2c(c1)N[S@@](=O)S2`
[reply] > 100 µM

Further cases:
[ask] Provide TGI, recorded with A498 renal, of COc1cc(C2SCC(=O)N2c2ccc(NC(C)=O)cc2)cc(OC)c1OC (stereo unspecified)
[reply] > 100 µM

[ask] Provide the reported TGI (system: A498 renal) for `COc1cc(-c2ccc(NC(=O)SCCC(=O)O)cc2OC)ccc1NC(=O)SCCC(=O)O`
[reply] > 100 µM

[ask] Find TGI for `O/C(=C\c1nc2ccccc2nc1/C=C(\O)c1ccc(F)cc1)c1ccc(F)cc1` on A498 renal and write it down.
[reply] > 100 µM

[ask] # return TGI of `O=C(Nc1ccc(-n2ccc3c(NC(=O)c4ccccc4)nccc32)cc1)Nc1cccc(C(F)(F)F)c1` (system: A498 renal)
[reply] 21 µM

[ask] Give A498 renal TGI for the following compound: `COc1cccc2nc3ccccc3nc12`
[reply] > 100 µM

[ask] Fill in TGI for C#CCNC(=O)NCCCCC(NC(C)=O)C(=O)NCc1ccccc1 (stereo unspecified) tested with A498 renal.
[reply] > 100 µM

[ask] Please respond with reported TGI (system A498 renal) for `CN(C)/C=N\c1nncc2[nH]cnc12` .
[reply] > 100 µM

====

# System: NCI-H460 lung
# assay: NCI tumour cell line growth inhibition, 48 h
TGI values, listed per item

Examples with answers:
[ask] Note TGI for the molecule shown: `Cc1nc(N)c(-c2ccccc2)s1`
[reply] > 100 µM

[ask] Respond only with TGI recorded for COc1cc(C(c2cccc3ccccc23)N2C(=O)CCC2C(=O)O)cc(OC)c1OC (configuration not stated)
[reply] > 100 µM

[ask] State, in one line, measured TGI of `COc1ccc(-c2[nH]nc(N)c2-c2cc(OC)c3c(c2)OCO3)cc1`
[reply] > 100 µM

[ask] Quick one: give measured TGI for CC(=O)OCC1OC(n2c(N)c(C#N)c(C)c(C#N)c2=S)C(OC(C)=O)C(OC(C)=O)C1OC(C)=O (configuration not stated)
[reply] > 100 µM

[ask] Return reported TGI. Input molecule: CCN(CC)CC(=O)NC1c2ccccc2Oc2c(C)cccc21 (configuration not stated)
[reply] > 100 µM

[ask] Check the records and state TGI for `COc1ccc2nc(-c3ccccc3)cc(Nc3cccc(C(C)=O)c3)c2c1`
[reply] 40.7 µM

[ask] Fill in reported TGI for this entry: C/C(=N/NC(=O)C[n+]1ccccc1)C(CN(CC(C)C)CC(C)C)C(=O)Nc1ccc(C)cc1C (configuration not stated)
[reply] > 100 µM

[ask] # return recorded TGI for input CN1N=C(c2ccccc2)C(C(c2ccccc2[N+](=O)[O-])C2C(=O)N(C)N=C2c2ccccc2)C1=O (configuration not stated)
[reply] > 100 µM

[ask] Let me know recorded TGI for CC(=O)[CH-]C(=O)c1ccccc1.CC(=O)[CH-]C(=O)c1ccccc1.CC(C)CCC[C@H](C)C1CCC2[C@@H]3CC=C4C[C@@H]([O-])CC[C@]4(C)C3CC[C@@]21C.CC(C)CCC[C@H](C)C1CCC2[C@@H]3CC=C4C[C@@H]([O-])CC[C@]4(C)C3CC[C@@]21C.Cl.[Ti+4] (some centres not stated) , thanks.
[reply] > 25 µM

[ask] For the molecule `CCN1CCN(c2nc3ccccc3nc2C(=O)c2ccc(OC)c(OC)c2)CC1` , report TGI.
[reply] 50.2 µM

Next:
[ask] Give the reported value of TGI for this record: `Nc1ncnc2c1ncn2-c1ccc([N+](=O)[O-])cn1`
[reply] > 100 µM

[ask] Provide measured TGI value, entry: COc1ccc(NC(=O)CC(=O)NNC(Sc2ccccc2)c2cc(N=Nc3ccc(Br)cc3)ccc2O)cc1 (configuration not stated)
[reply] > 10 µM

[ask] Tell me TGI reported for CC(=O)Nc1ccc(C(=O)NN2C(=O)C(Cl)C2c2cccc([N+](=O)[O-])c2)cc1 (configuration not stated)
[reply] > 100 µM

====

# System: SW-620 colon
# assay: NCI tumour cell line growth inhibition, 48 h
recorded.endpoint: GI50

Examples with answers:
[ask] Supply GI50 value. Item: CCN(CC)CCC(CNc1ccnc2cc(Cl)ccc12)c1ccccc1 (stereo not drawn)
[reply] 4.81 µM

[ask] Provide measured GI50 value, entry: `Cc1nc(-c2cnc(NC(C)C)n(C)c2=O)ccc1Oc1ccnc(-c2cnn(C)c2)c1`
[reply] 5.49 µM

[ask] State, in one line, measured GI50 of `Nc1nnnc2nc[nH]c12`
[reply] 0.78 µM

[ask] Report GI50, nothing else, for this compound: `COc1ccc(-c2[nH]nc(N)c2-c2cc(OC)c3c(c2)OCO3)cc1`
[reply] 3 µM

[ask] Answer with reported GI50 of NC(Cc1c[nH]c2ccc(F)cc12)C(=O)O (stereo not drawn)
[reply] 1170 µM

New cases:
[ask] Find the measured GI50 of `Clc1ccc(Nc2nc(Nc3ccccc3)nc(Nc3ccc(-c4cc(-c5ccc(Cl)cc5)on4)cc3)n2)cc1` and report it.
[reply] 26.4 µM

[ask] For the compound `c1ccc(-c2n(Cc3ccc4ccccc4c3)cc[n+]2Cc2ccc3ccccc3c2)cc1` , report GI50.
[reply] 1.08 µM

[ask] Supply reported GI50 belonging to this compound: `COc1ccc(-c2nn(-c3ccc(NC(=O)c4cc(Cl)cc(Cl)c4)cc3)cc2-c2ccncc2)cc1Cl`
[reply] > 100 µM
